Listing of entries alongside the reported melting point.

- compound: "COc1cc(-c2cc(=O)c3c(O)cc(O[C@@H]4O[C@H](CO)[C@@H](O[C@@H]5O[C@H](CO)[C@@H](O)[C@H](O)[C@H]5O)[C@H](O)[C@H]4O)cc3o2)cc(OC)c1O (stereo in doubt)"
  measuredQuantity: "melting point"
  val: "243.2 to 246.5 °C"

Please turn your attention to the following entry.
Quick check: melting point of COc1cc(-c2cc(=O)c3c(O)cc(O[C@@H]4O[C@H](CO)[C@H](O)[C@H](O)[C@H]4O)cc3o2)cc(OC)c1O (stereo in doubt) ? 260.2 to 263.3 °C

###

Listing of entries alongside the reported melting point.

- molecule: "COc1cc(-c2cc(=O)c3c(O)cc(O[C@@H]4O[C@H](CO)[C@@H](O[C@@H]5O[C@H](CO)[C@H](O)[C@H](O)[C@H]5O)[C@H](O)[C@H]4O)cc3o2)cc(OC)c1O (stereo in doubt)"
  melting point: "275.4 to 279.2 °C"
- molecule: "COc1cc(-c2cc(=O)c3c(O)cc(O[C@@H]4O[C@H](COC(C)=O)[C@H](OC(C)=O)[C@H](OC(C)=O)[C@H]4OC(C)=O)cc3o2)cc(OC)c1O (stereo in doubt)"
  melting point: "117.2 to 121.8 °C"

Please turn your attention to the following entry.
Quick check: melting point of COc1cc(-c2cc(=O)c3c(OC(C)=O)cc(O[C@@H]4O[C@H](COC(C)=O)[C@@H](OC(C)=O)[C@H](OC(C)=O)[C@H]4OC(C)=O)cc3o2)cc(OC)c1OC(C)=O ? 239.1 to 241.8 °C
